ENDPOINT NAME: melting point

Item under review: COC(=O)Cn1c(-c2ccc(Cl)cc2)nc2cccnc21 . Reported melting point?
198 to 200 °C

Also CCOC(=O)C1=C(C(C)C)Nc2n[nH]cc2C1c1ccccc1Cl (stereo unspecified) , if possible.
211 to 213 °C

Also COC1=CC2=CCC3C4CC(C)C(=O)C4(C)CCC3C2(C)CC1 (stereo unspecified) , if possible.
149 to 167 °C

---

ENDPOINT NAME: melting point

1) Fc1ccc(N2CCN(CCCNc3ccc(-n4ccnc4)cc3)CC2)cc1 = 164 to 166 °C
2) Cn1nc(-c2ccc3ccccc3c2)n(C)c1=S = 173 to 175 °C
3) COc1ccc(OC)c2c(=O)c3c(Cl)ccc([N+](=O)[O-])c3sc12 = 222 to 228 °C
4) CSC1CC(=O)N1CC(=O)CS(=O)(=O)c1ccccc1 (stereo unspecified) = 82 to 84 °C
5) CCCCc1nn(-c2ccc(C(F)(F)F)cn2)cc1CCC(=O)OCC = 63 to 64 °C

Consider the record given below.
Item under review: CCN(CC)S(=O)(=O)c1cc(Cl)c(Cl)c(Cl)c1S . Reported melting point?
96 to 99 °C

---

ENDPOINT NAME: melting point

1) CC(C)(C)[Si](C)(C)N1C(=O)CC1C(=O)NC(Cc1c[nH]c2ccccc12)C(=O)OCc1ccccc1 (stereo not given) = 60 to 65 °C
2) CN=C(C1=C(O)C(=O)c2ccccc2C1=O)c1ccccc1 = 235 to 237 °C
3) Clc1cc(Cl)cc(C=C2CCC3(CC2)OCCO3)c1 = 66 °C
4) COc1cccc2c3c(c(=O)[nH]c12)CCN3c1cccc(C)c1 = 155 to 157 °C

Consider the record given below.
Item under review: CC(C)(C)OC(=O)c1cc([N+](=O)[O-])cc([N+](=O)[O-])c1N(CCO)CCCl . Reported melting point?
106 to 107 °C

---

Attribute: melting point

Below, 5 molecules whose answers are already recorded.
1) CC1(C)Cc2c(Cl)cccc2C=[N+]1[O-] = 104 to 106 °C
2) C=CCN(C(C)C)C(C)CC1=C(c2ccc(OC)cc2)CCCNC1=O (stereo unspecified) = 95 to 97 °C
3) O=c1[nH]c2c(Cl)c(Cl)ccc2s1 = 229 °C
4) O=Cc1ccc(C(=O)Nc2ccc(OCC(F)(F)C(F)F)cc2)cc1 = 152 °C
5) COc1ccc(NC(=O)OC(C)(C)C)cc1 = 93 to 94 °C

Item under review: O=c1oc2ccccc2c(O)c1[N+](=O)[O-] . Reported melting point?
174 °C

Also COCc1ncc(-n2nc(C)cc2C)nc1Nc1ccc(Cl)cc1 , if possible.
105 to 108 °C

Also N#CCCNC(=O)c1cccc(-c2ccc3c(c2)N(Cc2ccc(Cl)cc2Cl)CCCC3)c1 , if possible.
139 to 140 °C

Also O=c1[nH]c2cc(Cl)ccc2c(=O)n1S(=O)(=O)c1cc(Cl)ccc1Cl , if possible.
254 to 256 °C

Also CC(Cl)OC(=O)Oc1c(Br)cc(C#N)cc1Br (stereo unspecified) , if possible.
91 to 93 °C

Also COc1ccc(N2CCN(C3CCN(Cc4ccccc4)CC3)C2=O)cc1 , if possible.
144 to 147 °C

---

Attribute: melting point

Below, 3 compounds whose answers are already recorded.
1. CN(C)c1ccc(C=NCCc2cccs2)cc1 = 76.8 to 77 °C
2. CCCc1nc2ncnn2c(N)c1CCc1ccccc1 = 190 to 191 °C
3. CC(O)(C(=O)Nc1ccc(S(=O)(=O)c2ccccc2)cc1[N+](=O)[O-])C(F)(F)F (stereo not given) = 191 to 192 °C

Item under review: CC(NC(=O)c1c(F)cccc1F)C(F)(F)F (stereo not given) . Reported melting point?
167 to 168 °C

Also CCc1cc(=O)c2cc(CCO)ccc2o1 , if possible.
75 to 76 °C

Also O=C(O)CN(CC(=O)O)CC(CCc1ccc([N+](=O)[O-])cc1)N(CC(=O)O)CC(=O)O (stereo not given) , if possible.
188 to 189 °C

---

Attribute: melting point

1) O=[N+]([O-])c1cnc2sccc2c1Cl = 110 to 113 °C
2) Fc1cccc(F)c1-c1ncc(-c2ccc(-c3ccc(OC(F)(F)F)cc3)cc2)nn1 = 225 to 230 °C
3) COCCOCc1c(CN(C)CC(O)c2ccc(C#N)s2)sc2c(=O)c(C(=O)NCc3ccc(Cl)cc3)cn(C)c12 (stereo unspecified) = 163 to 164 °C

Item under review: Oc1ccc2c(c1)CCCC2Cc1c[nH]cn1 (stereo unspecified) . Reported melting point?
200 to 205 °C

---

Attribute: melting point

Below, 4 compounds whose answers are already recorded.
1. CC1(C)CCC(C)(C)c2c(OCc3ccc(F)cc3)cc(C(O)C#Cc3ccc(C(=O)O)cc3)cc21 (stereo not given) = 188 °C
2. COCOc1cc2c(cc1C=O)C(C)(C)CCC2(C)C = 84 to 85 °C
3. COCC(OC(C)=O)C1CC(OC(C)=O)C2(C)CCC3C(CCC4CC(=O)CC(C)C43C)C12 (stereo not given) = 149 to 150 °C
4. COC(=N)N1CCC(c2n[nH]c3cc(Cl)ccc23)CC1 = 173 to 175 °C

Item under review: COc1ccc(-c2c(CO)c(CO)c3n2Cc2ccccc2C3)cc1 . Reported melting point?
174 to 176 °C

Also O=C(CBr)c1cc(O)c(O)c([N+](=O)[O-])c1 , if possible.
138 to 140 °C

Also COc1ccc2ccc(N3C(=O)c4ccccc4C3OCC(=O)OC(C)(C)C)nc2n1 (stereo not given) , if possible.
188 °C

Also CS(=O)(=O)c1ccc(-c2nn(CC3CC3)c(=O)cc2-c2ccc(Cl)cc2)cc1 , if possible.
140 °C

Also CC1(C)CCCC(C)(C)N1CCOC(=O)C(Cc1ccccc1)(Cc1ccccc1)C(=O)OCCN1C(C)(C)CCCC1(C)C , if possible.
77 to 78 °C

Also O=c1[nH]c2cc(F)c(NCC3=CCCOC3)cc2o1 , if possible.
175 to 176 °C

---

ENDPOINT NAME: melting point

1) O=C(Nc1ccccc1SCc1ncon1)c1ccc(Cl)cc1 = 103 °C
2) COC(=O)C[C@H](CCC(=O)OCc1ccccc1)NC(=O)OC(C)(C)C = 97 to 98 °C

Item under review: CC1CN(C(=O)NC(CS)Cc2ccccc2)CC(C)O1 (single isomer, unassigned; (+)) . Reported melting point?
120 to 122 °C

Also COc1ccc(C(=O)NC[C@@H](C(=O)NO)N2CCN(S(C)(=O)=O)CC2)cc1 , if possible.
158 °C

Also NS(=O)(=O)c1cccc(-c2noc(-c3cnn4c(C(F)F)cc(-c5ccc(C(F)(F)F)cc5)nc34)n2)c1 , if possible.
267 °C

Also CCC(CC)N(O)C(=O)Nc1ccc(Oc2ccccc2)cc1 , if possible.
124 to 125 °C

Also CN(C)c1nnc(-c2nnc(SCCC(F)=C(F)F)o2)o1 , if possible.
87 to 90 °C

Also CC1=C(c2cccc(C(F)(F)F)c2)n2ncc3c(=O)nc(NC(C)C)n(c32)C1 , if possible.
284 to 286 °C

Also CCOc1cn(C)c2nc3cc(F)c(F)cc3cc2c1=O , if possible.
> 270 °C

---

Attribute: melting point
Report as a plain number; the unit °C is understood.

1) O=[N+]([O-])c1cnc2c(F)c(Cl)c(F)cc2c1 = 174

Item under review: CCCOC(=O)OC1CSC(Oc2ccc3c(C)cc(=O)oc3c2)C(OC(=O)OCCC)C1OC(=O)OCCC (stereo not given) . Reported melting point?
134

---

Attribute: melting point

Below, 3 molecules whose answers are already recorded.
1) COC(=O)CCCC(C)(C)c1ccc(C(=O)c2ccccc2C(=O)O)cc1 = 138 to 140 °C
2) O=C(NC(Cc1ccccc1)C(=O)O)OCc1ccc(COc2ccc(F)cc2)cc1 (centres undefined) = 112 to 113 °C
3) O=C(NCCO)c1cccc(-c2cccc3nn(Cc4ccc(F)c(Cl)c4)cc23)c1 = 177 to 178 °C

Item under review: CC1=C(C(=O)OC(C)C)C(c2cccc([N+](=O)[O-])c2)n2c(cc(=O)n2S(=O)(=O)c2ccccc2)N1 (centres undefined) . Reported melting point?
187 to 188 °C

---

Attribute: melting point

1. CCOC(=O)C=Cc1cc(-n2nc3ccc(Cl)cn3c2=O)c(F)cc1Cl = 162 to 165 °C
2. COc1cc(C(O)CN2CCC(Cc3ccccc3)CC2)on1 (stereo unspecified) = 134 to 137 °C
3. Cc1cccc(N=C2NCCN2)c1 = 115 °C
4. COC(=O)CCC(=O)c1ccc(OCc2ccsc2)cc1O = 100 to 102 °C
5. CCCC(=Cc1cccc([N+](=O)[O-])c1)[N+](=O)[O-] = 45 to 47 °C
6. C[C@@H]1C(=O)N(C(=O)N2CCOCC2)Cc2ccccc2[C@@H]1C (relative stereo) = 184 to 185 °C
7. Nc1nc2ccccc2c2c1ncn2CCO = 260 to 262 °C
8. CC(C)(C)CNc1nc(C(=O)C(=O)c2ccccc2)ccc1[N+](=O)[O-] = 88 to 90 °C
9. CCCCCCCCCCCCCC(=O)O[C@H](CCCCCCCCCCC)CC(=O)NC(=O)[C@@H](N)CO = 126 to 130 °C
10. c1ccc2sc(-c3nc(COc4ccc(CCCn5ccnc5)cc4)co3)cc2c1 = 149 to 150 °C

Item under review: CC(C)(C)OC(=O)CC[C@H](NC(=O)c1ccc(N(CCCl)CCCl)cc1)C(=O)OC(C)(C)C . Reported melting point?
114 to 116 °C

Also CSc1nc(NC2CCCC2)c2ccnc-2[nH]1 , if possible.
190 to 191 °C

Also O=C(NCCCC(F)(F)F)c1nc(-c2ccc(Cl)cc2Cl)c(-c2ccc(Cl)cc2)s1 , if possible.
99 to 101 °C

Also CCCCCCCCC(O)Cc1ccc(OCc2ccccc2)c(OCc2ccccc2)c1 (stereo unspecified) , if possible.
55 to 57 °C

Also O=C(Cc1cccs1)c1c(O)sc2ccccc12 , if possible.
99 to 101 °C

Also O=C(CCl)[C@H](Cc1ccccc1)N(Cc1ccccc1)Cc1ccccc1 , if possible.
45.8 to 46.8 °C

Also O=c1ccoc2cc(O)ccc12 , if possible.
136 to 137 °C

Also COC(=O)C(Oc1ccc(Cl)cc1)c1ccc(I)cc1 (stereo unspecified) , if possible.
122 to 125 °C

Also COC(=O)N[C@H]1Cc2ccccc2C1=O , if possible.
157 to 159 °C

Also C=CCc1c(-c2cc(=O)c3c(O)c(CC=C)c(O)c(CC=C)c3o2)ccc(OC)c1O , if possible.
122 to 123 °C

Also COC(=O)[C@@H](NS(=O)(=O)c1ccc(Br)cc1)C(C)C , if possible.
88 to 90 °C

Reference source for all entries: a melting point compilation (Tetko et al.; mined from patent text by program, amines drawn as free bases though some values may be those of a salt)
